- test summary: Competitive inhibition of Bacillus cereus sphingomyelinase expressed in Bacillus subtilis ISW1214 after 30 mins by Lineweaver-Burke plot analysis
assay readout: pKi
Expect pKi as a plain number equal to -log10 of the molar concentration.

Exercise: Name the reported pKi value associated with the compound `CCCCCCCCCCCCC/C=C/[C@@H](O)[C@H](COCc1cccc(-c2ccccn2)n1)NC(=O)CCCCC`
Key: 5.28

====

- test summary: Inhibition of Bacillus cereus sphingomyelinase expressed in Bacillus subtilis ISW1214 assessed as [14C]sphingomyeline hydrolysis after 30 mins by liquid scintillation counting
assay readout: pIC50
Remember the convention: pIC50 equals -log10 of concentration in molar.

Exercise: Reported pIC50, compound `CCCCCCCCCCCCC/C=C/[C@@H](O)[C@H](COCc1cccc(-c2ccccn2)n1)NC(=O)CCCCC` : ____
Key: 5.92
